- test.summary: Kinetic solubility in water and four biological media at 37 °C
- Type: physicochemical
- test.settings: fessif, pH 5, FeSSIF (5.0), 4 h, about 10 mg/mL sample added, read-out: S: Solubility
Counter-ions that a name gives are not always drawn.
property.measured: solubility at 4 h (µg/mL)

molecule	property.measured	result.value
CO[C@H]1/C=C/O[C@@]2(C)Oc3c(C)c(O)c4c(c3C2=O)C2=NC3(CCN(CCn5c([N+](=O)[O-])cnc5C)CC3)NC2=C(NC(=O)/C(C)=C\C=C\[C@H](C)[C@H](O)[C@@H](C)[C@@H](O)[C@@H](C)[C@H](OC(C)=O)[C@@H]1C)C4=O [Crystal form I of triphenylacetate salt]	solubility at 4 h	120
